Recorded % Inhibition of ETA at 1 μM for the following compounds
assayed-target: ETA Receptor (Rattus norvegicus, UniProt P26684)
Construct: endogenous in cells; host or cells: MMQ rat pituitary cells (membranes)
Sequence (P26684 21-426): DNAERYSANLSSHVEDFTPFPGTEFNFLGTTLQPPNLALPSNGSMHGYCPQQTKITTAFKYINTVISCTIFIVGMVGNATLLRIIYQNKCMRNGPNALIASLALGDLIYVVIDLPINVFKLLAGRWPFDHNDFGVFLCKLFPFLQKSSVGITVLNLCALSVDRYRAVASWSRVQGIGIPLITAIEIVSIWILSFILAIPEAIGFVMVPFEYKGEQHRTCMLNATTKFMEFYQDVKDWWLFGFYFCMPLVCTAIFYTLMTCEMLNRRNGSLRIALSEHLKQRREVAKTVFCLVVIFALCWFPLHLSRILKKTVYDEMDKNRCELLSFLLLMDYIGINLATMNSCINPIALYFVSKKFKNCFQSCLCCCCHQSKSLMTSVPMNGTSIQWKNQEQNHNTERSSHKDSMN
method-description: [125I]ET-1 binding to membranes from MMQ cells (ETA receptor binding assay, Table 4)
recorded-conditions: test compound at 1 μM; 0.1 nM [125I]ET-1, MMQ cell membranes, 4 hours at 25° C.
Numeric answer only, unit % assumed.

Some compounds with known % Inhibition of ETA at 1 μM results, for comparison:
compound	% Inhibition of ETA at 1 μM [%]
CCCCS(=O)(=O)N(CCC)CCN1CC(c2ccc3c(c2)OCO3)C(C(=O)O)C1c1ccc(OC)cc1 (stereo not shown)	89.5
COCCOCCN1CC(c2ccc3c(c2)OCO3)C(C(=O)O)C1c1ccc(OC)cc1 (stereo not shown)	34.9
CCCCN(CCCC)C(=O)CN1CC(c2ccc3c(c2)OCO3)C(C(=O)O)C1C(C)C (stereo not shown)	83.8

Prompt: Recorded % Inhibition of ETA at 1 μM for COc1ccc(NC(=O)N2CC(c3ccc4c(c3)OCO4)C(C(=O)O)C2c2ccc(OC)cc2)cc1 (stereo not shown) , please?
Response: 66.1

Prompt: Find the recorded % Inhibition of ETA at 1 μM belonging to CCCCCCS(=O)(=O)N(CCC)CCN1CC(c2ccc3c(c2)OCO3)C(C(=O)O)C1c1ccc(OC)cc1 (stereo not shown) and report it.
Response: 93.3

Prompt: What measured % Inhibition of ETA at 1 μM goes with COc1ccc(C2C(C(=O)O)C(c3ccc4c(c3)OCO4)CN2CCc2ccccn2)cc1 (stereo not shown) ?
Response: 63.4

Prompt: Requested field: % Inhibition of ETA at 1 μM. Item: CCCCCS(=O)(=O)N(CC)CCN1CC(c2ccc3c(c2)OCO3)C(C(=O)O)C1c1ccc(OC)cc1 (stereo not shown)
Response: 87.1

Prompt: Sample CCCN(C)C(=O)CN1CC(c2ccc3c(c2)CCC3)C(C(=O)O)C1c1ccc(OC)cc1 (stereo not shown) [Example 142B] — what was its % Inhibition of ETA at 1 μM?
Response: 78.7

Prompt: Can you share its % Inhibition of ETA at 1 μM? I mean this compound: CCCCN(CCCC)C(=O)CN1CC(c2ccc3c(c2)OCO3)C(C(=O)O)C1c1ccc(OC)c(F)c1 (stereo not shown)
Response: 96.3

----------
Overview of recorded IC50 for various compounds
assayed-target: ETB receptors of porcine cerebellar tissues (pET-B) (Sus scrofa)
Construct: porcine cerebellar tissues (known to contain ETB receptors); from tissue; host or cells: porcine cerebellum (membranes)
Sequence (P35463 27-443): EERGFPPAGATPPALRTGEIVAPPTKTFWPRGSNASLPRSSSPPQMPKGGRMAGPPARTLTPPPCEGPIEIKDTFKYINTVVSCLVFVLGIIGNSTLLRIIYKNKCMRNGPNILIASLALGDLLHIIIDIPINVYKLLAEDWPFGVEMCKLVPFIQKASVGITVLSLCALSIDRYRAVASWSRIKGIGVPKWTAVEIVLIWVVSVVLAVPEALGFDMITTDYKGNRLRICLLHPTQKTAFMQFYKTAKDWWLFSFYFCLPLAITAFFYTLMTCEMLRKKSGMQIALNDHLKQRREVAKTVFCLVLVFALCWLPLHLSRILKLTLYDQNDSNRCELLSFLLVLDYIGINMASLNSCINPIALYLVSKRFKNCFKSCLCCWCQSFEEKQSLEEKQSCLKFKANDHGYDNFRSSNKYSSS
method-description: ETA/ETB selectivity: (125I)ET-3 competition binding, ETB assay in porcine cerebellum membranes (pET-B)
recorded-conditions: porcine cerebellum membranes; 0.1 nM (125I)ET-3; read-out: pET-B IC50

compound	IC50
CCCCN(CCCC)C(=O)CN1CC(c2ccc3c(c2)OCO3)C(C(=O)O)C1CC(C)(C)C1OCCO1 (centres unmarked)	> 100 µM

Prompt: # input compound: CCCCN(CCCC)C(=O)CN1CC(c2ccc3c(c2)OCO3)C(C(=O)O)C1CC(C)(C)C=C(C)C (centres unmarked) ; wanted: its IC50
Response: > 100 µM

----------
assayed-target: ETA Receptor (Rattus norvegicus)
Construct: endogenous in cells; host or cells: MMQ rat pituitary cells (membranes)
method-description: [125I]ET-1 binding to membranes from MMQ cells (ETA receptor binding assay, Table 4)
recorded-conditions: test compound at 1 μM; 0.1 nM [125I]ET-1, MMQ cell membranes, 4 hours at 25° C.
readout-label: % Inhibition of ETA at 1 μM (%)
Just the number in %, nothing appended.

Illustrative cases are given below, each with its answer.
compound	readout-label	numeric-value
COc1ccc(C2C(C(=O)O)C(c3ccc4c(c3)OCO4)CN2CC(=O)NC2CCCC2)cc1 (stereo not shown)	% Inhibition of ETA at 1 μM	90.3
COc1ccc(C2C(C(=O)O)C(c3ccc4c(c3)OCO4)CN2CCN(C)C(=O)C(C)C)cc1 (stereo not shown) [Example 61C]	% Inhibition of ETA at 1 μM	90.6
CCCN(CCN1CC(c2ccc3c(c2)OCO3)C(C(=O)O)C1c1ccc(OC)cc1)S(=O)(=O)c1ccc(C)cc1C (stereo not shown)	% Inhibition of ETA at 1 μM	89.7

From here, focus on the item given below.
Prompt: Quick check: % Inhibition of ETA at 1 μM of CCCN(CCN1CC(c2ccc3c(c2)OCO3)C(C(=O)O)C1c1ccc(OC)cc1)S(=O)(=O)c1ccc(Cl)cc1 (stereo not shown) ?
Response: 90.0
